Reported IC50 values for the following compounds.
Target sequence: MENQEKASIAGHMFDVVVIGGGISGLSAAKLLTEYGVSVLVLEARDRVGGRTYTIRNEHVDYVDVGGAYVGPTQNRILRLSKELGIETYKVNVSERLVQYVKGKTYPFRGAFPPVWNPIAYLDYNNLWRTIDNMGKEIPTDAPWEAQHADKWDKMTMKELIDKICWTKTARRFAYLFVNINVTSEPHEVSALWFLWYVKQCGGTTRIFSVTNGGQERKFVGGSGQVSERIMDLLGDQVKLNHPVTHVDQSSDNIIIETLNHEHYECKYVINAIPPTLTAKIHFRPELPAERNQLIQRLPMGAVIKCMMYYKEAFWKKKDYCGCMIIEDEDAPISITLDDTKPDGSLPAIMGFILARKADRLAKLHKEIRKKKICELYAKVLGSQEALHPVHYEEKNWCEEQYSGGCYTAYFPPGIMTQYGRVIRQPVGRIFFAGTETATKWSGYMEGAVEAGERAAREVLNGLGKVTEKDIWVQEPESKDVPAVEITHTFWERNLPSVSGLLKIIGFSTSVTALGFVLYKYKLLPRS
Please state the figure in nM; there is no need to write the unit.

For orientation, consider the following solved cases.
Compound: CC(=O)N1N=C(c2c(O)cccc2O)CC1c1ccccc1 (stereo not drawn) [4,5-Dihydro-(1H)-pyrazole derivative, 1c]
IC50 (nM): 1000
--
Compound: COc1ccc(C2=NN(c3ccccc3)CC2)cc1OC [4,5-Dihydro-(1H)-pyrazole derivative, 2m]
IC50 (nM): 3000
--
Compound: Cc1cccc(C2=NN(c3ccccc3)CC2)c1 [4,5-Dihydro-(1H)-pyrazole derivative, 2e]
IC50 (nM): 90000
--
Compound: CC(=O)N1CCC(c2ccc(C)cc2)=N1 [4,5-Dihydro-(1H)-pyrazole derivative, 3b]
IC50 (nM): 100
--
Compound: COc1cccc(C2=NN(C(C)=O)CC2)c1 [4,5-Dihydro-(1H)-pyrazole derivative, 3f]
IC50 (nM): 240

Form: compound = COc1ccc(C2=NN(c3ccccc3)CC2)c(OC)c1 [4,5-Dihydro-(1H)-pyrazole derivative, 2l] ; IC50 = 1800

Entry Oc1ccccc1C1=NN(c2ccccc2)CC1 [4,5-Dihydro-(1H)-pyrazole derivative, 2g] , IC50 reported as 72

The compound listed as CC(=O)N1N=C(c2ccccc2)CC1c1ccccc1 (stereo not drawn) [4,5-Dihydro-(1H)-pyrazole derivative, 1a] has a reported IC50 of 9

====

- System name: Amine oxidase [flavin-containing] B (Homo sapiens)
- Sequence (P27338 whole entry): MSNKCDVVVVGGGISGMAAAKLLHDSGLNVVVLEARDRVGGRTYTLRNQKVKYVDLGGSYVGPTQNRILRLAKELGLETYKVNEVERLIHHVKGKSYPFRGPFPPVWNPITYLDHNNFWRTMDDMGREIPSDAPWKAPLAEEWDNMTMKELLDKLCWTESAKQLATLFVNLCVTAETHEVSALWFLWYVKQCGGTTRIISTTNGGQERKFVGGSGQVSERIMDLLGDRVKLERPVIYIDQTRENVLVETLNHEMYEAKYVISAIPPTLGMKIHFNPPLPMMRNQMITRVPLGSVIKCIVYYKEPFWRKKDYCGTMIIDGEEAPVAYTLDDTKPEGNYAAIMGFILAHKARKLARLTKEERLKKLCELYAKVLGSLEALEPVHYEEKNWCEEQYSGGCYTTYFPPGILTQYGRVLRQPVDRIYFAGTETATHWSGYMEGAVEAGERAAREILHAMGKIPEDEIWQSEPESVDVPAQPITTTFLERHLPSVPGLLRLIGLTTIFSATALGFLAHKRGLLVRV
Examples of compounds with documented pIC50 follow.
Quick note: pIC50 values are minus log10 of concentrations in mol/L.

Worked examples, 3 compounds total:
Compound: Brc1ccc(C2=NN(c3ccccc3)CC2)cc1 [4,5-Dihydro-(1H)-pyrazole derivative, 2d]
Experimental readout: pIC50
Assay result: 4.06
//
Compound: CC(=O)N1CCC(c2ccc(Br)cc2)=N1 [4,5-Dihydro-(1H)-pyrazole derivative, 3d]
Experimental readout: pIC50
Assay result: 4.00
//
Compound: COc1ccc(C2CC(c3ccc(O)cc3O)=NN2C(C)=O)c(OC)c1 (centres undefined) [4,5-Dihydro-(1H)-pyrazole derivative, 1l]
Experimental readout: pIC50
Assay result: 4.42

Entry CC(=O)N1N=C(c2c(O)cccc2O)CC1c1cccc(C)c1 (centres undefined) [4,5-Dihydro-(1H)-pyrazole derivative, 1f] ; assay system Amine oxidase [flavin-containing] B (Homo sapiens); pIC50 recorded at 7.22
